tested on: CYP1A1; details: human, hepatocytes, 1 μM
endpoint label: Induction Ability compared to positive control (%) CYP1A1

1 = CCOC(=O)c1ccc(C(=O)Nc2cccc(-c3nc(NC)nc4cc(OC)c(OC)cc34)c2)cc1
2 = CCCOC(=O)c1cccc(C(=O)Nc2cccc(-c3nc(NC)nc4cc(OC)c(OC)cc34)c2)c1
3 = CNC(=O)c1ccc(C(=O)Nc2cccc(-c3nc(NC)nc4cc(OC)c(OC)cc34)c2)cc1
Prompt: # descending Induction Ability compared to positive control (%) CYP1A1 order for the listed compounds List each label, following the requested order.
Completion: 2, 1, 3
(2: 0.2%, 1: 0.1%, 3: 0.0%)

a = CNc1nc(-c2cccc(NC(=O)c3ccc(C(=O)OCCOC)cc3)c2)c2cc(OC)c(OC)cc2n1
b = CNc1nc(-c2cccc(NC(=O)c3cccc(C(=O)OCCOC)c3)c2)c2cc(OC)c(OC)cc2n1
c = CNc1nc(-c2cccc(NC(=O)c3ccc(C(=O)OC(C)C)cc3)c2)c2cc(OC)c(OC)cc2n1
Prompt: Please produce an ascending ranking of these compounds based on Induction Ability compared to positive control (%) CYP1A1. Would you mind listing the labels in the order asked for?
Completion: b, a, c
(b: 0.0%, a: 0.1%, c: 0.2%)

====

system: CYP3A4; assay: Induction potency of drug metabolizing enzyme (CYP) using cryopreserved human hepatocytes, CYP3A4 mRNA; conditions: test compound 10 μM, approximately 48 hours, mRNA normalised to GAPDH, positive control rifampicin 10 μM
endpoint label: Induction Ability compared to positive control (%) CYP3A4

I = CNC(=O)c1ccc(C(=O)Nc2cccc(-c3nc(NC)nc4cc(OC)c(OC)cc34)c2)cc1 [Example 5]
II = CCOC(=O)c1ccc(C(=O)Nc2cccc(-c3nc(NC)nc4cc(OC)c(OC)cc34)c2)cc1 [Example 4]
Prompt: Kindly compare I with II and tell me which has the lower Induction Ability compared to positive control (%) CYP3A4 figure. Your answer should be the label attached to the chosen record.
Completion: I

====

test system: CYP1A1; settings: human, hepatocytes, 3 μM
endpoint label: Induction Ability compared to positive control (%) CYP1A1

Known Induction Ability compared to positive control (%) CYP1A1 results, listed for orientation:
1. CNC(=O)c1cccc(C(=O)Nc2cccc(-c3nc(NC)nc4cc(OC)c(OC)cc34)c2)c1; 0.3
2. CNc1nc(-c2cccc(NC(=O)c3ccccc3)c2)c2cc(OC)c(OC)cc2n1 [Comparative example, reference compound]; 18.5

a = CCCOC(=O)c1cccc(C(=O)Nc2cccc(-c3nc(NC)nc4cc(OC)c(OC)cc34)c2)c1
b = CNc1nc(-c2cccc(NC(=O)c3cccc(C(=O)OCCOC)c3)c2)c2cc(OC)c(OC)cc2n1
Prompt: Dear colleague, could you let me know whether a or b has the lower recorded Induction Ability compared to positive control (%) CYP1A1? Thanks. Your answer should be the label of the entry you select.
Completion: b
(b: 0.0%, a: 0.3%)

====

test system: CYP3A4; experiment: Induction potency of drug metabolizing enzyme (CYP) using cryopreserved human hepatocytes, CYP3A4 mRNA; details: test compound 10 μM, approximately 48 hours, mRNA normalised to GAPDH, positive control rifampicin 10 μM
endpoint label: Induction Ability compared to positive control (%) CYP3A4

See these solved cases before continuing.
1) CCCOC(=O)c1cccc(C(=O)Nc2cccc(-c3nc(NC)nc4cc(OC)c(OC)cc34)c2)c1; −1.5
2) CNc1nc(-c2cccc(NC(=O)c3cccc(C(=O)OCCOC)c3)c2)c2cc(OC)c(OC)cc2n1; −2.0
3) CNC(=O)c1cccc(C(=O)Nc2cccc(-c3nc(NC)nc4cc(OC)c(OC)cc34)c2)c1; 2.7
4) CNc1nc(-c2cccc(NC(=O)c3ccccc3)c2)c2cc(OC)c(OC)cc2n1 [Comparative example, reference compound]; 17.0

1 = CNc1nc(-c2cccc(NC(=O)c3ccc(C(=O)OC(C)C)cc3)c2)c2cc(OC)c(OC)cc2n1
2 = CNc1nc(-c2cccc(NC(=O)c3ccc(C(=O)OCCOC)cc3)c2)c2cc(OC)c(OC)cc2n1
Prompt: Decide: 1 or 2 , by lowest recorded Induction Ability compared to positive control (%) CYP3A4. Answer with the label corresponding to your selection.
Completion: 1
(1: −11.9%, 2: −2.2%)
